Conditions: 303.15 K; 100 kPa; Liquid; Pycnometric method
Measured property: mass density (kg/m3)
Output spec: scalar in kg/m3, unitless text.

INSERT INTO measurements (compound, endpoint_value) VALUES
  ('Clc1ccccc1', 1095.2),
  ('Cc1ccccc1', 856.2),
  ('CCCCC(CC)COP(=O)(O)OCC(CC)CCCC (centres undefined) [bis(2-ethylhexyl) hydrogen phosphate]', 961.3);

As a next step, examine the compound that follows.
Entry "O=[N+]([O-])c1ccccc1" , mass density reported as 1193.6

* * *

compounds and their reported speed of sound
Details: 303.15 K; 100 kPa; Liquid; Frequency=2 MHz; Linear variable-path acoustic interferometer
Output spec: scalar in m/s, unitless text.

Field: example entries. Status: answers known.
INSERT INTO results (compound, unit_abbrev, endpoint_value) VALUES
  ('O=[N+]([O-])c1ccccc1', 'm/s', 1445.6),
  ('CCCCC(CC)COP(=O)(O)OCC(CC)CCCC (centres undefined) [bis(2-ethylhexyl) hydrogen phosphate]', 'm/s', 1293),
  ('Cc1ccccc1', 'm/s', 1282.6);

As a next step, examine the compound that follows.
Entry "Clc1ccccc1" , speed of sound reported as 1251.8

* * *

compounds and their reported viscosity
Conditions: 303.15 K; 100 kPa; Liquid; Capillary tube (Ostwald / Ubbelohde) method
Output spec: scalar in mPa·s, unitless text.

Field: example entries. Status: answers known.
INSERT INTO assay_data (compound, endpoint_value) VALUES
  ('Cc1ccccc1', 0.528),
  ('CCCCC(CC)COP(=O)(O)OCC(CC)CCCC (centres undefined) [bis(2-ethylhexyl) hydrogen phosphate]', 19.29),
  ('O=[N+]([O-])c1ccccc1', 1.611);

Entry "Clc1ccccc1" , viscosity reported as 0.724
